The measurements presented in this section are drawn from PubChem BioAssay (NCI).

- Test system: NCI/ADR-RES ovarian
- assayExplanation: NCI tumour cell line growth inhibition, 48 h

compound | GI50
CC(=O)NC1C(O[C@H]2C[C@H]3[C@@H]4CC=C5C[C@@H](O)CC[C@]5(C)[C@H]4CC[C@]3(C)[C@H]2[C@H](C)C(=O)CCC(C)C)OCC(O)C1O (stereo partly drawn) | 13.1 µM
CN1CCN(c2c(F)cc(NC3=C(Cl)C(=O)c4ncccc4C3=O)cc2F)CC1 | 17.9 µM
CCCCCCCCCCCCCCNC(=O)Nc1ccc(Cl)c(Cl)c1 | 3.02 µM
C(=Nc1nc(SCc2ccccc2)nc2[nH]ncc12)c1cccs1 | 49.6 µM
O=C(Nc1ccc(OC(F)(F)Cl)cc1)c1cnc(N2CC[C@@H](O)C2)c(-c2ccn[nH]2)c1 | 24.9 µM
CNCc1ccc(-c2cc(-c3nc(-c4ccc(S(=O)(=O)C(C)C)cc4)cnc3N)on2)cc1 | 3.08 µM
Fc1ccc(NC(c2ccc(F)cc2)C2CCN(CCCCc3ccccc3)CC2)cc1 (stereo not drawn) | 1.7 µM
CCCCCCCCCCCC[C@@H](O)[C@H]1CC[C@H]([C@H](O)CC[C@H](O)[C@@H]2CC[C@@H](CCCCCCCC3=C[C@H](C)OC3=O)O2)O1 | 2.12 µM
